Data origin: paper PMC4650713

pIC50 values by entry
Molecular target: BaxΔC21 (UniProt Q07812 1-171, C62S | C126S)
Sequence (Q07812 1-171 C62S/C126S): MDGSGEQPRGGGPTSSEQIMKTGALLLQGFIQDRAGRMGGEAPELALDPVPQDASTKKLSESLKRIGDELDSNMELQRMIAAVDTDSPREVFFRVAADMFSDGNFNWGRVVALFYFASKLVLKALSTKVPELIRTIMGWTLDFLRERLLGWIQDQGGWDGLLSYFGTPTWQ
Assay: SPR
pIC50: −log10 of the molar value.

binder	pIC50
SESQEDIIRNIARHLRQVGDSMDRSIPPGLVNGL [BidBH3 A91R]	7.39
SESQEDIIRNIARHLAQVGDSMDRSIPPGLVNGL [BidBH3 peptide]	6.51
